# target-under-test: σ1R (Cavia porcellus)
# Construct: the thawed membrane preparation of guinea pig brain cortex; from tissue; host or cells: guinea pig brain cortex membranes
# Sequence (Q60492 whole entry): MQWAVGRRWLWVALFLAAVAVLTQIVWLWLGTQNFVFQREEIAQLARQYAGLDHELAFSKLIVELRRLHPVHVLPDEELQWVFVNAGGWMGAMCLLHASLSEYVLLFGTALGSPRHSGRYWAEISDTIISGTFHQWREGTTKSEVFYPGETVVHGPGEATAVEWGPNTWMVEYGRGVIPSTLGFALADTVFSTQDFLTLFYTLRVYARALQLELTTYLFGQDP
# assay-details: Sigma-1 receptor binding, [3H]-(+)-pentazocine competition
# Set-up: species or system guinea pig
metric-name: pKi
Convention used: pKi is expressed as -log10 of the molar concentration.

Req: Query for σ1R (Cavia porcellus): what pKi does the record show for `COc1ccc2oc(C(=O)Nc3ccc(CN(C)Cc4ccccc4)cc3)cc(=O)c2c1` ?
Resp: 6.32

Req: Give the reported pKi for `CN(Cc1ccccc1)Cc1ccc(NC(=O)c2cc(=O)c3cc(O)ccc3o2)cc1` (system: σ1R (Cavia porcellus)).
Resp: 6.42

Req: GET /values?readout=pKi&system=σ1R (Cavia porcellus)&item= `CN(Cc1ccccc1)Cc1ccc(NC(=O)c2cc(=O)c3c(O)cc(O)cc3o2)cc1`
Resp: 6.29

* * *

# target-under-test: human recombinant AChE (hAChE) (Homo sapiens)
# Construct: purchased Sigma Chemical Co
# assay-details: biochemical
# run-parameters: hAChE IC50, mean ± SEM (n = 3)
metric-name: pIC50
Reminder that pIC50 is minus the log10 of a molar concentration.

Req: Any idea what pIC50 was measured for `COc1cc2oc(C(=O)Nc3cccc(CN(C)Cc4ccccc4)c3)cc(=O)c2cc1OC` ?
Resp: 5.35

Req: Fill in: pIC50 of `COc1cc2[nH]c(C(=O)Nc3ccc(CN(C)Cc4ccccc4)cc3)cc(=O)c2cc1OC` is ___
Resp: 5.35

Req: Any idea what pIC50 was measured for `CN(Cc1ccccc1)Cc1ccc(NC(=O)c2cc(=O)c3cc(O)ccc3[nH]2)cc1` ?
Resp: 5.51

Req: Quick one: pIC50 of `COc1cc(OC)c2c(=O)cc(C(=O)Nc3ccc(CN(C)Cc4ccccc4)cc3)oc2c1` ?
Resp: 5.49

Req: Entry `COc1ccc2c(=O)cc(C(=O)Nc3ccc(CN(C)Cc4ccccc4)cc3)[nH]c2c1` : reported pIC50 = ?
Resp: 5.64

* * *

# target-under-test: σ1R (Cavia porcellus)
# Construct: the thawed membrane preparation of guinea pig brain cortex; from tissue; host or cells: guinea pig brain cortex membranes
# assay-details: Sigma-1 receptor binding, [3H]-(+)-pentazocine competition
# Design: species or system guinea pig
# run-parameters: guinea pig brain cortex membranes, [3H]-(+)-pentazocine; mean ± SEM; read-out: Ki σ1R
metric-name: Ki (nM)
A number alone suffices; assume nM.

Req: Please look up its Ki: `COc1cc2oc(C(=O)Nc3cccc(CN(C)Cc4ccccc4)c3)cc(=O)c2cc1OC`
Resp: 530

* * *

# target-under-test: human recombinant AChE (hAChE) (Homo sapiens, UniProt P22303)
# Construct: purchased Sigma Chemical Co
# Sequence (P22303 32-614): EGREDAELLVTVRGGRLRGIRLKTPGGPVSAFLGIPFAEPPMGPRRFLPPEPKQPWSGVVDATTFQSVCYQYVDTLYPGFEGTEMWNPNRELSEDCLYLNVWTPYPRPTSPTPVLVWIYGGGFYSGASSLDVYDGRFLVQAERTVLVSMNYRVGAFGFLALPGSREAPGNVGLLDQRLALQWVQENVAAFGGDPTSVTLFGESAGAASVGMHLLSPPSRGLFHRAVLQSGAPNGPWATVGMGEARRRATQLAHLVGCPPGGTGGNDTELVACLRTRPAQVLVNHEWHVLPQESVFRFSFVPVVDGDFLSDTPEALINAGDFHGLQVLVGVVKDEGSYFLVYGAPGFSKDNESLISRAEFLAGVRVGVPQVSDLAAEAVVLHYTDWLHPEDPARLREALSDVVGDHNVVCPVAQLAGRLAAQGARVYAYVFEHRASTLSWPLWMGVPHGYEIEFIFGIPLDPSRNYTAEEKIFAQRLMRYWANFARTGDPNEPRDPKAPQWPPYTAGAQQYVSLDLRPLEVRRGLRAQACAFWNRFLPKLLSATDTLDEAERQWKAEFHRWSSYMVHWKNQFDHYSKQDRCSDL
# assay-details: biochemical
# run-parameters: mean ± SEM (n = 3); read-out: hAChE IC50
Threshold check on IC50: strictly below 2000 nM is satisfied; on or above 2000 nM is not satisfied.

Req: Determine whether this molecule shows IC50 lower than 2000 nM (ties excluded): `CN(Cc1ccccc1)Cc1ccc(NC(=O)c2cc(=O)c3cc(O)ccc3o2)cc1`
Resp: satisfied

Req: Here's an entry: `COc1ccc2oc(C(=O)Nc3ccc(CN(C)Cc4ccccc4)cc3)cc(=O)c2c1` . Is its IC50 below 2000 nM?
Resp: satisfied

Req: Could you please tell me whether IC50 recorded for `COc1ccc2[nH]c(C(=O)Nc3ccc(CN(C)Cc4ccccc4)cc3)cc(=O)c2c1` is less than 2000 nM?
Resp: not satisfied

Req: # strict comparison: is reported IC50 < 2000 nM? input = `CN(Cc1ccccc1)Cc1ccc(NC(=O)c2cc(=O)c3c(O)cc(O)cc3o2)cc1`
Resp: satisfied

Req: Criterion: IC50 strictly below 2000 nM. Is it met by `COc1cccc2[nH]c(C(=O)Nc3ccc(CN(C)Cc4ccccc4)cc3)cc(=O)c12` ?
Resp: not satisfied
